meta.source: patent US12011444B2

Target: UniProt P43116
Sequence (P43116 whole entry): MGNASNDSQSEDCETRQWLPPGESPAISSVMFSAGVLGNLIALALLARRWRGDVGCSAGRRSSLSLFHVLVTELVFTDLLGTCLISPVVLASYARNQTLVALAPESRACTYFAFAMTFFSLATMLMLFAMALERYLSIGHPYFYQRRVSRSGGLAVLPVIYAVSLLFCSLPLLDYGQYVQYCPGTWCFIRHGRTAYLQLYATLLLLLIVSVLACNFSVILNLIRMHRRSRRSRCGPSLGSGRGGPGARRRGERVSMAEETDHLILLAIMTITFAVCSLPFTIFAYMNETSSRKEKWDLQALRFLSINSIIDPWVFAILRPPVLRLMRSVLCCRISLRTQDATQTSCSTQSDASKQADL
Readout kind: pIC50
FYI, pIC50 means -log10 of a concentration in mol per litre.

Some compounds with known pIC50 results, for comparison:
[[record]]
smiles_code = "CCOc1cc(-c2cc(NCCn3c(C)cc4c(OC)ccc(F)c43)ncn2)ccc1CNCC(C)C"
readout_kind = "pIC50"
measured_number = 6.14

[[record]]
smiles_code = "COc1cc(F)cc2c1cc(C)n2CCNc1cc(-c2ccc(-c3oc(CCC(=O)O)nc3C)cc2)ncn1"
readout_kind = "pIC50"
measured_number = 6.78

[[record]]
smiles_code = "CCOc1cc(-c2cc(NCCn3c(C)cc4c(OC)ccc(F)c43)nc(C)n2)ccc1C(=O)O"
readout_kind = "pIC50"
measured_number = 7.60

[[record]]
smiles_code = "COc1cc(-c2cc(NCCn3c(C)cc4c(OC)ccc(Cl)c43)ncn2)cc(C)c1C(=O)O"
readout_kind = "pIC50"
measured_number = 7.02

[[record]]
smiles_code = "COc1ccc(F)c2c1cc(C)n2CCNc1cc(-c2ccc(-c3nnn[nH]3)s2)ncn1"
readout_kind = "pIC50"
measured_number = 8.52

[[record]]
smiles_code = "Cc1cc(Cl)cc2c1cc(C)n2CCNc1cc(-c2ccc(C(=O)O)c(CC(C)C)c2)ncn1"
readout_kind = "pIC50"
measured_number = 7.22

[[record]]
smiles_code = "COc1cc(F)c(F)c2c1cc(C)n2CCNc1cc(-c2ccc3[nH]ccc3c2)ncn1"
readout_kind = "pIC50"
measured_number = 7.82

[[record]]
smiles_code = "COc1ccc(F)c2c1cc(C)n2CCNc1cc(-c2ccc(-c3oncc3C)cc2)ncn1"
readout_kind = "pIC50"
measured_number = 7.60


If you can, please state the reported pIC50 value of CCOc1cc(-c2cc(NCCn3c(C#N)cc4c(OC)cc(F)cc43)ncn2)ccc1C(=O)O .
7.59

Same lookup for CCOc1cc(-c2cc(NCCn3c(Cl)cc4c(Cl)ccc(F)c43)ncn2)ccc1C(=O)O , please.
7.82

How about COc1cc(Cl)cc2c1cc(C)n2CCNc1cc(-c2ccc(-c3noc(=O)[nH]3)cc2)ncn1 ?
7.70
